target: T1, human pIgR, full-length, on cells (human, UniProt P01833 19-764); assay: flow cytometry on MDCK-hpIgR cells; summary table, repeats Table 1
T1 construct: whole, on cells; Used for the flow cytometry EC50 values (MDCK-hpIgR) and for the transcytosis read-outs; also called hpIgR; cell-surface hpIgR
T1 sequence (P01833 19-764): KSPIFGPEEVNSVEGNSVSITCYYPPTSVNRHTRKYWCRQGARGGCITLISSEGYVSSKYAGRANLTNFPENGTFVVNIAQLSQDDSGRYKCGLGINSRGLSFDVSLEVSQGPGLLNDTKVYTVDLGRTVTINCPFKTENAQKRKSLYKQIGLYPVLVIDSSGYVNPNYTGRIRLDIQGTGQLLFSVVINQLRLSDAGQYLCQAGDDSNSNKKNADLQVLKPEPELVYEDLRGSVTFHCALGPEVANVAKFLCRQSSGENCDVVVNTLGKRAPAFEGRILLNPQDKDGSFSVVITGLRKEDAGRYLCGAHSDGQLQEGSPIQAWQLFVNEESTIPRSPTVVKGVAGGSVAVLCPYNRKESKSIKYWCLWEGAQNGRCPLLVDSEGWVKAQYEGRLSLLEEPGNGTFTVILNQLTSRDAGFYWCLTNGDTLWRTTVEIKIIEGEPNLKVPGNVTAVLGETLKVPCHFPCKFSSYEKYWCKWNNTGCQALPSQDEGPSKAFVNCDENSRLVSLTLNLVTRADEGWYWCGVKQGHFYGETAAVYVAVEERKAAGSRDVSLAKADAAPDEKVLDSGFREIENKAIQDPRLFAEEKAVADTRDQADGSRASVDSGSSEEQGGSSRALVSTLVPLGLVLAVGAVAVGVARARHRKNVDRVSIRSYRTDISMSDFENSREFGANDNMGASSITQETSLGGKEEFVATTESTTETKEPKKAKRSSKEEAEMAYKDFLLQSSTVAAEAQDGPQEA
assayEndpoint: EC50 (nM)

>>> measurement("VHH7-linker-mono-Fc protein (Fc fusion, made in CHO cells; also called VHH7-mono-Fc; hpIgR_198) EVQVVESGGGLVQAGGSLRLACVASRSIGSINVMGWYRQAPGKQRDLVARITGGGSTHYAESVKGRFTISRDNAKNTVYLQMNSLEPEDTAVYYCASMVNPIITAWGTIGVREIPDYDYWGQGTQVTVSSEPKTPKPQPQPQLQPQPNPTTESKSPKSPAPELLGGPSVFLFPPKPKDTLMISRTPEVTCVVVDVSHEDPEVKFNWYVDGVEVHNAKTKPREEQYNSTYRVVSVLTVLHQDWLNGKEYKCKVSNKALPAPIEKTISKAKGQPREPQVYTKPPSREEMTKNQVSLSCLVKGFYPSDIAVEWESNGQPENNYKTTVPVLDSDGSFRLASYLTVDKSRWQQGNVFSCSVMHEALHNHYTQKSLSLSPGK")
36.4
